molecular target: Protein phosphatase methylesterase 1 (Homo sapiens) (UniProt Q9Y570); assay: PME-1 inhibitor activity retest, confirmation, biochemical, fluorescence polarization, FP-Rh probe, triplicate (AID 2171); conditions: recombinant PME-1, FP-Rh probe fluorescence polarization; at 5.9 µM; hits give high values;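 also: 0% = enzyme with DMSO and 100% = wells lacking PME-1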
Sequence (Q9Y570 whole entry, looked up): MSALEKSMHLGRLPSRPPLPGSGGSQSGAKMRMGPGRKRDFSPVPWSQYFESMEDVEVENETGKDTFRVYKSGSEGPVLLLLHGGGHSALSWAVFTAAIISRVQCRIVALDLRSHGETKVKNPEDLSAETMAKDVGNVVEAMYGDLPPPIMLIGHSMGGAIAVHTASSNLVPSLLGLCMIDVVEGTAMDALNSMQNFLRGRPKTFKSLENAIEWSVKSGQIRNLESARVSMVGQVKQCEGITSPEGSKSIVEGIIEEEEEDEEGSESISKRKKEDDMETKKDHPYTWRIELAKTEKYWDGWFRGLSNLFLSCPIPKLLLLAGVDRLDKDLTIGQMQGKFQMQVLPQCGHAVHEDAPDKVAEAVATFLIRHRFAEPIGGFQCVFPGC

{"columns": ["Molecule", "Measurement Target", "inhibition [%]"],
 "data": [
  ["N=c1oc2cc(O)ccc2cc1C(=O)Nc1nc2ccccc2s1", "Protein phosphatase methylesterase 1 (Homo sapiens) (UniProt Q9Y570)", 25.7],
  ["O=c1[nH]n2c(=O)c3c([nH]c2c1N=Nc1cccc(Cl)c1)CCCC3", "Protein phosphatase methylesterase 1 (Homo sapiens) (UniProt Q9Y570)", 61.8],
  ["COc1ccc2ccccc2c1C(O)c1nccn1C (configuration not stated)", "Protein phosphatase methylesterase 1 (Homo sapiens) (UniProt Q9Y570)", 23.1],
  ["CCn1c(CSc2nnc(-c3cccnc3)n2-c2ccccc2C)nc2cc(C(=O)O)ccc21", "Protein phosphatase methylesterase 1 (Homo sapiens) (UniProt Q9Y570)", 82],
  ["Cc1[nH]c2ccccc2c1/C=N/Nc1nc(Nc2ccccc2)nc(N2CCOCC2)n1", "Protein phosphatase methylesterase 1 (Homo sapiens) (UniProt Q9Y570)", 34.2],
  ["CCN(CC)c1ccc(-c2nn3c(-c4ccccc4OC)nnc3s2)cc1", "Protein phosphatase methylesterase 1 (Homo sapiens) (UniProt Q9Y570)", 22.1],
  ["COc1ccc(S(=O)(=O)N2CCCCCC2)cc1NC(=O)Cc1cc(OC)c(OC)c(OC)c1", "Protein phosphatase methylesterase 1 (Homo sapiens) (UniProt Q9Y570)", 64],
  ["COc1ccc(-c2nc(-c3ccccc3)c(-c3cc([N+](=O)[O-])ccc3C)[nH]2)cc1O", "Protein phosphatase methylesterase 1 (Homo sapiens) (UniProt Q9Y570)", -4.82],
  ["COc1ccc(NS(=O)(=O)c2ccc3oc(Nc4ccc5c(c4)OCCO5)nc3c2)cc1", "Protein phosphatase methylesterase 1 (Homo sapiens) (UniProt Q9Y570)", 12.1],
  ["Nc1c(N2CCCC2)cc(Cl)c2nonc12", "Protein phosphatase methylesterase 1 (Homo sapiens) (UniProt Q9Y570)", 18.8],
  ["CCN(CC)C(=O)C1c2ccccc2Oc2ccccc21", "Protein phosphatase methylesterase 1 (Homo sapiens) (UniProt Q9Y570)", 7.22],
  ["N#CCSc1nc2c(cc1C#N)CCCCCC2", "Protein phosphatase methylesterase 1 (Homo sapiens) (UniProt Q9Y570)", 22.3],
  ["CC(C)=CCc1cc2c(=O)c3c(O)c4c(cc3oc2c(O)c1O)OC(C)C4(C)C (configuration not stated)", "Protein phosphatase methylesterase 1 (Homo sapiens) (UniProt Q9Y570)", -51.2],
  ["Oc1ccc(/C=N/Nc2ccc(C(F)(F)F)cn2)c(O)c1", "Protein phosphatase methylesterase 1 (Homo sapiens) (UniProt Q9Y570)", 17.8],
  ["CCCCCCC(=O)N1CCC(c2nc3c(nnn3Cc3ccccc3Cl)c(=O)[nH]2)CC1", "Protein phosphatase methylesterase 1 (Homo sapiens) (UniProt Q9Y570)", 21.9],
  ["Fc1ccc2nc(Nc3nc4cc5c(cc4s3)OCO5)sc2c1", "Protein phosphatase methylesterase 1 (Homo sapiens) (UniProt Q9Y570)", 2.53],
  ["O=C1C(SCCO)=C(SCCO)C(=O)c2ccccc21", "Protein phosphatase methylesterase 1 (Homo sapiens) (UniProt Q9Y570)", 38.3],
  ["CCCCN(C)CCCNC(=O)c1cn(CC)c2ccc(S(=O)(=O)N3CCc4ccccc4C3)cc2c1=O", "Protein phosphatase methylesterase 1 (Homo sapiens) (UniProt Q9Y570)", 53.6],
  ["O=c1ccc2ccc(Oc3ccc([N+](=O)[O-])cc3[N+](=O)[O-])cc2o1", "Protein phosphatase methylesterase 1 (Homo sapiens) (UniProt Q9Y570)", 25.6],
  ["Cc1cccc2cc(C#N)c(SCC#N)nc12", "Protein phosphatase methylesterase 1 (Homo sapiens) (UniProt Q9Y570)", 3.95],
  ["CCOc1ccc(NC(=O)Nc2ccc3c(c2)N(C)C(=O)CS3)cc1", "Protein phosphatase methylesterase 1 (Homo sapiens) (UniProt Q9Y570)", 14.8],
  ["O=[N+]([O-])c1cc(S(=O)(=O)Nc2cccc(C(F)(F)F)c2)ccc1-n1nnc2ccccc21", "Protein phosphatase methylesterase 1 (Homo sapiens) (UniProt Q9Y570)", 18.7]
]}
